- Test system: Wnt activity (Sp5-Luc reporter, SW480 colon carcinoma cells)
- ASSAY_PROCEDURE: Screening assay for Wnt activity: Sp5-Luc reporter gene assay in SW480 cells
- Format: cell-based
- EXPERIMENTAL_PARAMETERS: Homo sapiens, 42 h incubation, luminescence
Could you mark each record Satisfied if its IC50 falls strictly under 40 nM, and Not satisfied if it equals or exceeds it?

Worked examples follow.
Fc1cccc(-c2nccc3[nH]c(-c4n[nH]c5ccc(C6=CCNCC6)cc45)nc23)c1	Not satisfied
CC(=O)c1ccc(-c2nccc3[nH]c(-c4n[nH]c5ccc(-c6cncc(NC(=O)Cc7ccccc7)c6)cc45)nc23)s1	Satisfied
CN1CCN(c2nccc3[nH]c(-c4n[nH]c5ccc(-c6cncnc6)cc45)nc23)CC1	Satisfied

Prompt: For CN(C)Cc1cncc(-c2ccc3[nH]nc(-c4nc5c(-c6cc(F)cc(CNS(C)(=O)=O)c6)nccc5[nH]4)c3c2F)c1 , is the recorded IC50 below the cut-off of 40 nM?
Completion: Not satisfied

Prompt: For CCCCC(=O)Nc1cncc(-c2ccc3[nH]nc(-c4nc5c(-c6ccoc6)nccc5[nH]4)c3c2)c1 , is the recorded IC50 below the cut-off of 40 nM?
Completion: Satisfied

====

- Tested on: Wnt activity (Sp5-Luc reporter, SW480 colon carcinoma cells)
- ASSAY_PROCEDURE: Screening assay for Wnt activity: Sp5-Luc reporter gene assay in SW480 cells
- Format: cell-based
- EXPERIMENTAL_PARAMETERS: Homo sapiens, 42 h incubation, luminescence
QUANTITY_NAME: pIC50
Numbers only, as −log10 of the molar value.

List reported pIC50 for each of these compounds:
1. O=C(CC1CCNCC1)Nc1cncc(-c2ccc3[nH]nc(-c4nc5c(-c6cccc(F)c6)nccc5[nH]4)c3c2)c1 [Compound 1777]
2. CC(C)Nc1cncc(-c2ccc3[nH]nc(-c4nc5c(-c6cc(F)cc(NCCN(C)C)c6)nccc5[nH]4)c3c2)c1 [Compound 428]
3. O=C(Cc1ccccc1)Nc1cncc(-c2ccc3[nH]nc(-c4nc5c(-c6ccncc6)nccc5[nH]4)c3c2)c1 [Compound 114]
4. COc1cc(F)cc(-c2nccc3[nH]c(-c4n[nH]c5ccc(-c6cncc(NC(=O)CC(C)C)c6)cc45)nc23)c1 [Compound 2208]
5. CC(C)C(=O)Nc1cncc(-c2ccc3[nH]nc(-c4nc5c(N6CCN(C)CC6)nccc5[nH]4)c3c2)c1 [Compound 217]
6. CN(C)Cc1cncc(-c2cc(F)c3[nH]nc(-c4nc5c(-c6ccsc6)nccc5[nH]4)c3c2)c1 [Compound 688]

Completion:
1: 6.61; 2: 8.22; 3: 7.44; 4: 7.70; 5: 6.61; 6: 6.38

====

- System: Wnt activity (Sp5-Luc reporter, SW480 colon carcinoma cells)
- ASSAY_PROCEDURE: Screening assay for Wnt activity: Sp5-Luc reporter gene assay in SW480 cells
- Type: cell-based
- EXPERIMENTAL_PARAMETERS: Homo sapiens, 42 h incubation, luminescence
For each entry below, report its pIC50 value.
Answers are plain numbers, as −log10 of the molar value.

CC(C)CC(=O)Nc1cncc(-c2ccc3[nH]nc(-c4nc5c(-c6cc(O)cc(F)c6)nccc5[nH]4)c3c2)c1	7.46
Fc1cccc(-c2nccc3[nH]c(-c4n[nH]c5ccc(-c6cncc(OC7CCCCC7)c6)cc45)nc23)c1	6.60
CC(C)(C)C(=O)Nc1cncc(-c2ccc3[nH]nc(-c4nc5c(-c6ccc(F)cc6)nccc5[nH]4)c3c2)c1	7.89
NC1CN(c2cncc(-c3ccc4[nH]nc(-c5nc6c(-c7cccc(F)c7)nccc6[nH]5)c4c3)n2)C1	6.77
Fc1cccc(-c2nccc3[nH]c(-c4n[nH]c5ccc(-c6cn[nH]c6)cc45)nc23)c1	8.40

List reported pIC50 for each of these molecules:
1. CN(C)CCOc1cncc(-c2ccc3[nH]nc(-c4nc5c(-c6cccc(F)c6)nccc5[nH]4)c3c2)c1
2. O=C(Nc1cncc(-c2ccc3[nH]nc(-c4nc5c(-c6ccsc6)nccc5[nH]4)c3c2)c1)C1CC1

Completion:
6.72
6.90

Origin of the recorded values: patent US10081631B2
